Data provenance: ChEMBL document CHEMBL5352442

Quick reference for pEC50 among some molecules
# MEASUREMENT PROTOCOL: Inhibition of biotinylated PEX5 (unknown origin)/N-terminal His-tagged Trypanosoma brucei PEX14 (19 to 84 residues) expressed in Escherichia coli BL21 by AlphaScreen assay
Scale explanation: pEC50 corresponds to minus log10 of a concentration expressed in moles per litre.

>>> recorded_value("CCN1C(=O)c2ccccc2Oc2cc(NC(=O)Cc3cnccn3)ccc21")
3.13

// query What pEC50 value was documented for this molecule, CCN1C(=O)c2ccccc2Oc2cc(NS(=O)(=O)c3ccccc3)ccc21 ?
// result 3.03

// query What pEC50 value was documented for this molecule, COC(=O)CN1C(=O)c2ccccc2Oc2cc(NC(=O)Cc3ccc(F)cc3)ccc21 ?
// result 2.14

// query What pEC50 value was documented for this molecule, CCN1C(=O)c2ccccc2Oc2cc(NC(=O)Cc3cccnc3)ccc21 ?
// result 3.07

// query What pEC50 value was documented for this molecule, CCN1C(=O)c2ccccc2Oc2cc(NC(=O)Oc3ccccc3)ccc21 ?
// result 3.60

// query What pEC50 value was documented for this molecule, CCN1C(=O)c2ccccc2Oc2cc(NC(=O)[C@@H](N)c3ccccc3)ccc21 ?
// result 3.60

// query What pEC50 value was documented for this molecule, CCN1C(=O)c2ccccc2Oc2cc(NC(=O)Cn3nnc4ccccc43)ccc21 ?
// result 3.45

// query What pEC50 value was documented for this molecule, CCN1C(=O)c2ccccc2Oc2cc(NC(=O)Cc3cccc(Cl)c3)ccc21 ?
// result 3.30

// query What pEC50 value was documented for this molecule, CCN1C(=O)c2ccccc2Oc2cc(NC(=O)Cc3ccc(Cl)cc3)ccc21 ?
// result 4.27

// query What pEC50 value was documented for this molecule, CCN1C(=O)c2ccccc2Oc2cc(NC(=O)Cc3ccc(F)cc3)ccc21 ?
// result 3.06

// query What pEC50 value was documented for this molecule, CCN1C(=O)c2ccccc2Oc2cc(NS(=O)(=O)Cc3ccccc3)ccc21 ?
// result 2.44

// query What pEC50 value was documented for this molecule, CCN1C(=O)c2ccccc2Oc2cc(NC(=O)Cc3ccccc3)ccc21 ?
// result 2.96
